- Tgt: T1, Processed stabilized hMPV PreF trimer (115BV) (human metapneumovirus, strain B2)
- T1 construct: also called Processed hMPV PreF trimer; processed PreF
- Measurement Protocol: BLI, mAb on anti-human Fc sensor
I'd appreciate it if you could supply Octet binding response values for the items below.
One number for each entry, in nm.

Answered examples (4):
M4F8 (antibody, V domains shown, IgG) VH: QVQLVQSGPEVKKPGASVKISCKASEYTFTNHYLHWVRQAPGQGLEWLGIINPTGGSTYYAGDFQGRVTLTRDASTTTVYMELSSVKSEDTAIYYCARDRGMRYFDYWGQGTLVTVSS VL: QSVLTQPPSVSGAPGQRVSISCTGISSNIGATYDVHWYQQLPGTAPKLLIYGNNNRPSGVPDRFSGSKSGTSASLAITGLQAEDEAVYYCQSYDSVLSGSVIFGGGTILTVL ... 0.0584
M2D2 (antibody, V domains shown, IgG) VH: QVQLVQSGAEVKKPGASVKVSCKASGYNFDNYYMSWVRQAPGQGLEWLGIIDPSGGRISYAPKFQGRVTLTRDTSTSTVYMELRGLRFEDTALYYCARLEATHEGPWGQGTLVTVSS VL: QSVLTQPPSASGTPGQRVTISCSGSNSNIGSSTVNWYQQLPGTAPKLLIYSDNHRPSGVPDRFSGSRSGTSASLVISGLHSEDEADYYCGTWDDGLNGPYVFGTGTKVTVL ... 0.351
M2A03 (antibody, V domains shown, IgG) VH: QLQLQESGPGLVKPSETLSLTCSVSGGSISSSSNSWTWIRQPPGKGLEWIATIFYFGSTYYNPSLRSRVAISVDTSENQFSLKLTSVTAADTAVYFCARHILSSSGVSGWLDPWGQGTLVTVSS VL: SYELTQPPSVSVSPGQTASITCSGEKLGSKYAHWYQQKPGRSPVLVIYQDTKRPSGIPERFSGSNSGSTATLTISGTQAMDEADYYCQAWDSSSFVFGTGTTVTVL ... 0.109
M4A06 (antibody, V domains shown, IgG) VH: EVQLVESGGGLVRPGGSLRLSCAASGFSLTTDEVNWVRQAPGKGPEWVSFISASGHTIYYADSVKGRFTISRDNGRNSVYLQMNSLRAEDTAVYYCARVGRLGGVGYYYALGPFDLWGQGTMVTVSS VL: EIVLTQSPGTLSLSPGERATLSCRASQSITSNYLAWYQQKPGQAPRLLIYGASSRATGIPDRFSGSGSGTDFTLTISRLQPEDFAVYYCQQYGSSLYIFGQGTKLEIK ... 0.281

Switching to the query record.
Tell us which Octet binding response value is on record for M2B04 (antibody, V domains shown, IgG) VH: QVQLVQSGPEVKKPGASVKVSCKASGYSITTYGIDWVRQAPGQGLEWIGWSSAHTGNTNYAEKFQGRVTMTTDTSTYTTYMELRSLKSDDTAVYYCAMGAYTSSRNWFDPWGQGTLVIVSS VL: EIVLTQSPATLSLSPGERATLSCRASQNINNFLAWYQQKAGQAPRLLIYDASNRATGIPGRFSGSGSGTDFTLTISSLEPEDFAVYYCQQRANWPLTFGGGTKVEVK 0.125
